# PROTOCOL_NOTES: yeast display, Sf9 membrane polyspecificity reagent, FACS + sequencing; frameworks hold sequencing errors
REPORTED_PROPERTY: polyreactivity (PSR sort gate)

Known results for sequences:
[[record]]
seq_string = "QVQLVESGGGLVQAGGSLRLSCAASGRIFTNAMGWYRQAPGKERELVAAISGGSNTYYADSVKGRFTISRDNAKNTVYLQMNSLKPEDTAVYYCNTDDLWWDGGYDYWGQGTQVTVSS"
result = "low polyreactivity"

[[record]]
seq_string = "QVQLVESGGGLVQAGGSLRLSCAASGRTFGLYAMGWYRQAPGKERELVAAISRSGGRTYYADSVKGRFTISRDNAKNTVYLQMNSLKPEDTAVYYCSTYYDRASYRYDYWGQGTQETVSS"
result = "high polyreactivity"

[[record]]
seq_string = "QVQLVESGGGLVQAGGSLRLSCAASGNIFRKYAMGWYRQAPGKERELVATISYSGGSTYYADSVKGRFTISRDNAKNTVYLQMNSLKPEDTAVYYCNAVKDLDSSFDYWGQGTQVTVSS"
result = "low polyreactivity"

[[record]]
seq_string = "QLQLVESGGGLVQAGGSLRLSCAASGSILSRYAMGWYRQAPGKEMELVAGITRGGSTNYADSVKGRFTISRDNAKNTVYLHMNSLKPEDTAVYYGAKASRRFLTLGYDYWGQGTQVTVSS"
result = "high polyreactivity"


Below: the item to evaluate.
IN: # lookup: polyreactivity (PSR sort gate) of QDQLVESVGGLVQAGVSLPLSCAASGIIFLYNDMGWFRQARGKAREFVATLSRSGGSTYYADSVKGRVTISRDNAKNTVYLQMNRLKPEETAVYYCAADEDSGYGYWGQGTQVTVTS
OUT: low polyreactivity
